Where do these numbers come from? They come from patent US6114334A.

Target: D2 dopamine receptors (Rattus norvegicus, UniProt P61169)
Sequence (P61169 whole entry): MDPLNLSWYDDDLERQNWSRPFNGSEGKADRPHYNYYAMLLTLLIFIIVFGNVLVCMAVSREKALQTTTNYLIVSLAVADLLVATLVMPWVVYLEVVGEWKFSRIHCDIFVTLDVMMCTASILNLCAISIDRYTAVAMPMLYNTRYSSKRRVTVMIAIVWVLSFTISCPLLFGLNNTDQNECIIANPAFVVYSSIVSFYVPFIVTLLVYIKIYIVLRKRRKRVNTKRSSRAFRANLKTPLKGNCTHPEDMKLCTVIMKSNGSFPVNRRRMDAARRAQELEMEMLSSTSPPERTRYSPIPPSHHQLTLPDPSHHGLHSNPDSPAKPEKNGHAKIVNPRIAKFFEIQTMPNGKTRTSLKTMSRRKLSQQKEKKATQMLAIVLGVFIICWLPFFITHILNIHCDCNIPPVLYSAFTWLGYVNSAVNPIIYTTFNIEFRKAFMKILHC
Experiment: inhibition of tritiated (S)-sulpiride binding to D2 dopamine receptors in vitro
Conditions: rat striatum, tritiated (S)-sulpiride 1 nM, 4° C., 40 min
pKi: −log10 of the molar value.
readout-kind: pKi

Completed entries (count: 5):
{"columns": ["compound", "pKi"],
 "data": [
  ["CCCn1c(N)c(CN2CCN(c3cccc4c3OCCO4)CC2)c(=O)n1-c1ccccc1", 6.75],
  ["C=CCn1c(-c2ccco2)nn(CN2CCN(c3ccccc3OC)CC2)c1=S", 6.80],
  ["COCCCn1c(-c2ccncc2)nn(CN2CCN(c3ccccc3OC)CC2)c1=S", 6.72],
  ["CCCn1c(-c2ccncc2)nn(CN2CCN(c3ccccc3OC)CC2)c1=S", 6.56],
  ["Nc1c(CN2CCN(c3cccc4c3OCCO4)CC2)c(C2CC2)nn1-c1ccccc1", 6.43]
]}

I: Nc1c(CN2CCN(c3cccc4c3OCCO4)CC2)c(C2CC2)nn1-c1ccccn1
II: COc1ccccc1N1CCN(Cn2nc(-c3ccncc3)n(C)c2=S)CC1
Problem: Returns: the label, I or II , whose recorded pKi is the lower number. When you have decided, please share the label of that item.
Result: II

---

Tested on: α1-adrenoceptors
Assay: inhibition of 7-methoxy-[3H]prazosin binding to α1-adrenoceptors in vitro
Design: species or system rat (male Charles River CD, whole cortical tissue)
Conditions: 10^-6 M, rat whole cortex, 7-methoxy-[3H]prazosin; 30 min, 1 µM
Structures can show the parent of a compound that is named as a salt.
readout-kind: % displacement at 10^-6 M, α1 (%)

{"columns": ["compound", "% displacement at 10^-6 M, α1, %"],
 "data": [
  ["C=CCn1c(-c2cccnc2)nn(CCN2CCN(c3ccccc3C)CC2)c1=O [Example 71]", 56],
  ["C=CCn1c(-c2ccc(Cl)cc2)nn(CN2CCN(c3ccccc3OC)CC2)c1=S [Example 62]", 59],
  ["C=CCn1c(-c2cccnc2)nn(CCCCN2CCN(c3cccc(C)c3C)CC2)c1=O [Example 64]", 98],
  ["Cc1ccccc1N1CCN(Cc2c(N)n(C)n(-c3ccccc3)c2=O)CC1 [Example 3]", 89],
  ["C=CCn1c(-c2cccnc2)nn(CCN2CCN(c3ccccc3OC)CC2)c1=O.Cl.Cl [Example 67]", 78],
  ["Nc1c(CN2CCN(c3cccc(Cl)c3)CC2)c(C2CC2)nn1-c1ccccc1 [Example 14]", 80]
]}

P: C=CCn1c(-c2cccnc2)nn(CCCN2CCN(c3ccccc3OC)CC2)c1=O.Cl.Cl.Cl [Example 72]
Q: C=CCn1c(-c2cccnc2)nn(CCN2CCN(c3cccc(C)c3C)CC2)c1=O [Example 65, hydrochloride]
Problem: Returns: the label, P or Q , whose recorded % displacement at 10^-6 M, α1 is the lower number. When you have decided, please share the label of that item.
Result: Q

1: Nc1c(CN2CCN(c3cccc4c3OCCO4)CC2)c(C2CC2)nn1-c1ccccc1Cl [Example 33]
2: COc1ccccc1N1CCN(Cn2nc(-c3ccncc3)n(C)c2=S)CC1 [Example 51]
Problem: Returns: the label, 1 or 2 , whose recorded % displacement at 10^-6 M, α1 is the lower number. When you have decided, please share the label of that item.
Result: 2

---

Molecular target: α1-adrenoceptors
Assay: inhibition of 7-methoxy-[3H]prazosin binding to α1-adrenoceptors in vitro
Design: species or system rat (male Charles River CD, whole cortical tissue)
Settings: rat whole cortex, 7-methoxy-[3H]prazosin 0.1 nM, 30° C., 30 min
Method: Whole cortical tissue from the brains of male Charles River CD rats weighing between 150-250 g were homogenised in ice-cold 50 mM Tris-HCl, pH 7.6 (at 25° C.; 1:40 w/v) and centrifuged at 1000 g at 4° C. for 10 minutes. […] The filters were punched out into vials, scintillation fluid added and radioactivity determined by liquid scintillation counting. The percentage displacement of specific binding of the tritiated ligand was calculated for the single concentration (10^-6 M) of test compound. […]
readout-kind: Ki (nM)

{"columns": ["compound", "experimental-system", "Ki (nM)"],
 "data": [
  ["Nc1c(CN2CCN(c3cccc4c3OCCO4)CC2)c(C2CC2)nn1-c1ccccc1 [Example 10]", "α1-adrenoceptors", 31],
  ["C=CCn1c(-c2ccco2)nn(CN2CCN(c3ccccc3OC)CC2)c1=S [Example 56]", "α1-adrenoceptors", 401]
]}

a: COc1ccccc1N1CCN(Cc2c(N)n(C)n(-c3ccccc3)c2=O)CC1 [Example 1]
b: COc1ccccc1N1CCN(Cn2nc(C(F)(F)F)n(C)c2=S)CC1 [Example 54]
Problem: Select the item with the higher value of Ki from the options a and b listed. When you have decided, please share the label of that item.
Result: b

---

Target: α1-adrenoceptors
Assay: inhibition of 7-methoxy-[3H]prazosin binding to α1-adrenoceptors in vitro
Parameters: species or system rat (male Charles River CD, whole cortical tissue)
Settings: rat whole cortex, 7-methoxy-[3H]prazosin 0.1 nM, 30° C., 30 min
readout-kind: Ki (nM)

Completed entries (count: 5):
{"columns": ["compound", "output-unit", "Ki"],
 "data": [
  ["CC(C)Oc1ccccc1N1CCN(Cc2c(C3CC3)nn(-c3ccccc3)c2N)CC1", "nM", 17],
  ["Nc1c(CN2CCN(c3cccc4c3OCCO4)CC2)c(C2CC2)nn1-c1ccc(Cl)cc1", "nM", 19],
  ["Nc1c(CN2CCN(c3cccc4c3OCCO4)CC2)c(C2CC2)nn1-c1ccccn1", "nM", 35],
  ["Cn1c(N)c(CN2CCN(c3cccc4c3OCCO4)CC2)c(=O)n1-c1ccccc1", "nM", 401],
  ["Nc1c(CN2CCN(c3cccc4c3OCCO4)CC2)c(C2CC2)nn1-c1ncccn1", "nM", 82]
]}

P: Cn1nc(C2CCCC2)c(CN2CCN(c3cccc4c3OCCO4)CC2)c1N
Q: COc1ccccc1N1CCN(Cn2ncn(C)c2=S)CC1
R: Cn1nc(C2CC2)c(CN2CCN(c3cccc4c3OCCO4)CC2)c1N
Problem: Rank by Ki (largest to smallest). Use the labels to give the requested order.
Result: Q, R, P
(Q: 358 nM, R: 126 nM, P: 45 nM)

---

Molecular target: 5-HT1A receptors (Rattus norvegicus, UniProt P19327)
Sequence (P19327 whole entry): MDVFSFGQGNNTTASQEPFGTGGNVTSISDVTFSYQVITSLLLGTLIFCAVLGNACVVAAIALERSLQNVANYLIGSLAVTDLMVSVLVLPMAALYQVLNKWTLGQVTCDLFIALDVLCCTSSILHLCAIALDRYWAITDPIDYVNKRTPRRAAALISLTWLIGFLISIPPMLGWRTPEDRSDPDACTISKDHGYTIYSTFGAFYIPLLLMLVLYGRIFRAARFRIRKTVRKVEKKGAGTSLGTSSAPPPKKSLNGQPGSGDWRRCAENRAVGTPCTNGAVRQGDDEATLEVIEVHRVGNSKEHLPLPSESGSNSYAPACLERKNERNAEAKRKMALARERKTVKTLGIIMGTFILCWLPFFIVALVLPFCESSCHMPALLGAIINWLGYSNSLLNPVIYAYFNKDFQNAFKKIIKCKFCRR
Assay: inhibition of [3H]8-OH-DPAT binding to 5-HT1A receptors in vitro
Design: species or system rat (male Sprague-Dawley, hippocampal tissue)
Conditions: rat hippocampus, [3H]8-OH-DPAT 2 nM, 25° C., 30 min
readout-kind: Ki (nM)

Completed entries (count: 5):
{"columns": ["molecule", "output-unit", "Ki"],
 "data": [
  ["Nc1c(CN2CCN(c3cccc4c3OCCO4)CC2)c(C2CC2)nn1-c1ncccn1 [Example 35]", "nM", 2.3],
  ["COc1ccccc1N1CCN(Cn2nc(-c3ccc(Cl)cc3)n(-c3cccnc3)c2=S)CC1 [Example 48]", "nM", 108],
  ["C=CCn1c(-c2ccncc2)nn(CN2CCN(c3ccccc3OC)CC2)c1=S [Example 49]", "nM", 123],
  ["C=CCN1C(=O)C(C)(CN2CCN(c3cccc4c3OCCO4)CC2)N=C1c1cccnc1 (stereo not drawn) [Example 44]", "nM", 15],
  ["CC1(CN2CCN(c3cccc4c3OCCO4)CC2)N=C(c2ccccc2)NC1=O (stereo not drawn) [Example 38]", "nM", 22]
]}

I: COc1ccccc1N1CCN(Cn2nc(C(F)(F)F)n(C)c2=S)CC1 [Example 54]
II: COc1ccccc1N1CCN(CC2(C)N=C(c3ccccc3)NC2=O)CC1 (stereo not drawn) [Example 37]
Problem: Select the item with the higher value of Ki from the options I and II listed. When you have decided, please share the label of that item.
Result: I
(I: 135 nM, II: 93 nM)

I: C=CCn1c(-c2ccco2)nn(CN2CCN(c3ccccc3OC)CC2)c1=S [Example 56]
II: C=CCn1c(-c2ccccc2)nn(CN2CCN(c3ccccc3OC)CC2)c1=S [Example 52]
III: COc1ccc(-n2nc(C3CC3)c(CN3CCN(c4cccc5c4OCCO5)CC3)c2N)cc1 [Example 17]
IV: Nc1c(CN2CCN(c3cccc4c3OCCO4)CC2)c(C2CC2)nn1-c1ccccn1 [Example 16]
V: CC(C)(C)c1nn(-c2ccccc2)c(N)c1CN1CCN(c2cccc3c2OCCO3)CC1 [Example 22]
Problem: Order the entries by their reported Ki, beginning at the minimum. Use the labels to give the requested order.
Result: IV, V, III, I, II

---

Molecular target: 5-HT1A receptors (Rattus norvegicus)
Experiment: inhibition of [3H]8-OH-DPAT binding to 5-HT1A receptors in vitro
Set-up: species or system rat (male Sprague-Dawley, hippocampal tissue)
Conditions: 10^-6 M, rat hippocampus, [3H]8-OH-DPAT; read-out: % displacement at 10^-6 M, 5-HT1A
Where a name gives a salt, the structure may show the parent alone.
readout-kind: inhibition at 1 µM (%)

{"columns": ["molecule", "experimental-system", "assay-result"],
 "data": [
  ["C=CCn1c(-c2cccs2)nn(CCN2CCN(c3ccccc3OC)CC2)c1=O [Example 69]", "5-HT1A receptors (Rattus norvegicus)", 70]
]}

P: C=CCn1c(-c2cccnc2)nn(CCN2CCN(c3cccc(C)c3C)CC2)c1=O [Example 65, hydrochloride]
Q: Nc1c(CN2CCN(c3cccc4c3OCCO4)CC2)c(C2CC2)nn1-c1ccccc1Cl [Example 33]
Problem: Returns: the label, P or Q , whose recorded inhibition at 1 µM is the lower number. When you have decided, please share the label of that item.
Result: P
